# system.under.test: Aβ42 (Homo sapiens, UniProt P05067)
# Sequence (P05067 672-713): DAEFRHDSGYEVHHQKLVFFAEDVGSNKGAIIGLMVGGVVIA
# protocol.text: Th-T (thioflavin-T) assay of Aβ42 aggregation
# Format: biochemical
# protocol.conditions: Aβ42 aggregation time course, reading M125
result.type: Th-T fluorescence, mean of three wells

C=C1CCC2C(C)(CC(=O)C=C(C)C)C(O)CCC2(C)C1Cc1c(OC)oc(CO)c(C)c1=O (stereo not shown): 3.61
C=C1CCC2C3(C)CC(C=C(C)C)OC3CCC2(C)C1Cc1c(OC)oc(C)c(C)c1=O (stereo not shown): 3.803

In the following, a different compound is considered.
Inquiry: # lookup: Th-T fluorescence, mean of three wells of `C=C1CC[C@@H]2[C@](C)(CC[C@H]3O[C@H](C=C(C)C)C[C@@]23C)[C@@H]1Cc1c(O)c(C)c(C)oc1=O`
Reply text: 2.994

###

# system.under.test: Aβ42 (Homo sapiens, UniProt P05067)
# protocol.text: Th-T (thioflavin-T) assay of Aβ42 aggregation
# Type: biochemical
# protocol.conditions: column suffix _20; reading M93
Classify by measured Fig. 7a Th-T reading, mean of three wells: true (1) if it is equal to or exceeds 2, false (0) if it is smaller.

C=C1CC[C@@H]2[C@](C)(CC[C@H]3O[C@H](C=C(C)C)C[C@@]23C)[C@@H]1Cc1c(OC)oc(CO)c(C(=O)OC)c1=O: false (0)
C=C1CCC2C(C)(CCC=C(C)C)C(O)CCC2(C)C1Cc1c(OC)oc(CO)c(C(=O)OC)c1=O (centres unmarked): false (0)
C=C1CCC2C(C)(CCC=C(C)C)C(O)CCC2(C)C1Cc1c(OC)oc(C)c(C(=O)OC)c1=O (centres unmarked): false (0)
C=C1CCC2C(C)(CCC=C(C)C)C(O)CCC2(C)C1Cc1c(OC)oc(CO)c(C)c1=O (centres unmarked): true (1)

Below: the item to evaluate.
Inquiry: Hi team, for `C=C1CC[C@@H]2[C@](C)(CC[C@H]3O[C@H](C=C(C)C)C[C@@]23C)[C@@H]1Cc1c(OC)oc(CO)c(C)c1=O` , is the recorded Fig. 7a Th-T reading, mean of three wells at or above 2?
Reply text: true (1)

###

Below, each entry is listed with its recorded Th-T fluorescence of Aβ42 (sheet Fig. 7a), mean of three wells.
# system.under.test: Aβ42 (Homo sapiens)
# protocol.text: Th-T (thioflavin-T) assay of Aβ42 aggregation
# Format: biochemical
# protocol.conditions: head suffix _10 (concentration 10); reading M72
Please state the value as a number alone, without comment.

Inquiry: # lookup: Th-T fluorescence of Aβ42 (sheet Fig. 7a), mean of three wells of C=C1CCC2C(C)(CCC=C(C)C)C(O)CCC2(C)C1Cc1c(OC)oc(C)c(C(=O)OC)c1=O (centres unmarked)
Reply text: 2.755

Inquiry: # lookup: Th-T fluorescence of Aβ42 (sheet Fig. 7a), mean of three wells of `C=C1CC[C@@H]2[C@](C)(CC[C@H]3O[C@H](C=C(C)C)C[C@@]23C)[C@@H]1Cc1c(OC)oc(CO)c(C(=O)OC)c1=O`
Reply text: 0.7933

Inquiry: # lookup: Th-T fluorescence of Aβ42 (sheet Fig. 7a), mean of three wells of C=C1CCC2C(C)(CCC=C(C)C)C(O)CCC2(C)C1Cc1c(OC)oc(CO)c(C)c1=O (centres unmarked)
Reply text: 3.332

Inquiry: # lookup: Th-T fluorescence of Aβ42 (sheet Fig. 7a), mean of three wells of C=C1CCC2C(C)(CCC=C(C)C)C(O)CCC2(C)C1Cc1c(OC)oc(CO)c(C(=O)OC)c1=O (centres unmarked)
Reply text: 1.561

Inquiry: # lookup: Th-T fluorescence of Aβ42 (sheet Fig. 7a), mean of three wells of `C=C1CC[C@@H]2[C@](C)(CC[C@H]3O[C@H](C=C(C)C)C[C@@]23C)[C@@H]1Cc1c(OC)oc(CO)c(C)c1=O`
Reply text: 3.425
